target: T1, HA69 peptide on HLA DQB1*06:02/DQA1*01:02 (DQ0602) (human); assay: activation reporter or marker
T1 peptide: AMERNAGSGIIISDT
readout_kind: binding result

Please review the entries below; each comes with its answer.
…-1 (TCR) alpha TRAV20 TRAJ52 CDR3: CAVQAPGTSYGKLTF beta TRBV24-1 TRBJ2-3 CDR3: CATSVGTSGYTQYF
no recognition
TCR CIVRSQGGSYIPTF / CATSRDTMTSIGTDTQYF (TCR) alpha TRAV26-1 TRAJ6 CDR3: CIVRSQGGSYIPTF beta TRBV15 TRBJ2-3 CDR3: CATSRDTMTSIGTDTQYF
recognises
TCR CAATDTGNQFYF / CASSQHGQGNQPQHF (TCR) alpha TRAV13-1 TRAJ49 CDR3: CAATDTGNQFYF beta TRBV7-8 TRBJ1-5 CDR3: CASSQHGQGNQPQHF
recognises
…-1 (TCR) alpha TRAV10 TRAJ26 CDR3: CVVSPTGGQNFVF beta TRBV6-2 TRBJ2-6 CDR3: CASSYWGLGANVLTF
no recognition
TCR CILRDVLSNFGNEKLTF / CASSQASVSVDTQYF (TCR) alpha TRAV26-2 TRAJ48 CDR3: CILRDVLSNFGNEKLTF beta TRBV4-2 TRBJ2-3 CDR3: CASSQASVSVDTQYF
recognises

Fill in the blank: the reported binding result of TCR CAVSEGRSNQGGKLIF / CASSSQGRENEQYF (TCR) alpha TRAV8-6 TRAJ23 CDR3: CAVSEGRSNQGGKLIF beta TRBV19 TRBJ2-7 CDR3: CASSSQGRENEQYF is ____. recognises

Please look up its binding result: TCR CAAADTGNQFYF / CASSSHGQGNQPQHF (TCR) alpha TRAV13-1 TRAJ49 CDR3: CAAADTGNQFYF beta TRBV7-8 TRBJ1-5 CDR3: CASSSHGQGNQPQHF recognises

These measurements were taken from paper PMC9371724.
